- Tested on: Trypanosoma brucei rhodesiense
- assay.notes: Antitrypanosomal activity against Trypanosoma brucei rhodesiense STIB900 after 70 hrs by alamar blue assay
- Format: functional, organism-based
- reported.conditions: STIB900, 70 h
Could you please report measured IC50 for the items listed next?
Answers are plain numbers, in nM.

Some solved cases for reference:
>  <smiles>
COc1cc(C(=N)N)ccc1-c1cn(-c2ccc(C(=N)N)cc2)nn1.Cl.Cl

>  <property.label>
IC50

>  <units>
nM

>  <recorded.value>
31

$$$$
>  <smiles>
COc1cc(C(=N)N)ccc1-n1cc(-c2cccc(C(=N)N)c2)nn1.Cl.Cl

>  <property.label>
IC50

>  <units>
nM

>  <recorded.value>
11

$$$$
>  <smiles>
Cl.Cl.N=C(N)c1cccc(-n2cc(-c3ccc(C(=N)N)cc3O)nn2)c1

>  <property.label>
IC50

>  <units>
nM

>  <recorded.value>
8

$$$$
>  <smiles>
c1cc(C2=NCCN2)cc(-c2cn(-c3cccc(C4=NCCN4)c3)nn2)c1

>  <property.label>
IC50

>  <units>
nM

>  <recorded.value>
14100

$$$$

Shifting focus to the compound that follows.
IC50 for `COc1ccc(C(=N)NC(C)C)cc1-n1cc(-c2cccc(C(=N)NC(C)C)c2)nn1` is 10100
